Recorded values, source the array DNA melting data of Ke et al..

# TEST METHOD NOTES: melting temperature; melt of duplexes
# CONDITION PARAMETERS: sodium 0.0675 M; strand 1 µM
Consider the following substances and their measured Tm readings.

| SUBSTANCE | Tm |
| --- | --- |
| CGACGTGCCCAATGTGCTG+CAGCACATACTGCACGTCG ((((((((...((((((((+))))))))...)))))))) | 47.5 °C |
| CGACGTGCACAATGTGCTG+CAGCACATTCGGCACGTCG ((((((((..(((((((((+)))))))))..)))))))) | 49.7 °C |
| CGACGTGCGGGATGTGCTG+CAGCACATCGCGCACGTCG (((((((((.(((((((((+))))))))).))))))))) | 63.7 °C |
| CGACGTGCCTAATGTGCTG+CAGCACATCATGCACGTCG ((((((((.(.((((((((+)))))))).).)))))))) | 48.5 °C |
| CGACGTGCTCAATGTGCTG+CAGCACATCATGCACGTCG ((((((((...((((((((+))))))))...)))))))) | 49.7 °C |
| CGACGTGCGAAATGTGCTG+CAGCACATATAGCACGTCG ((((((((.(.((((((((+)))))))).).)))))))) | 54.3 °C |
| CGACGTGCACAATGTGCTG+CAGCACATTGAGCACGTCG ((((((((.((((((((((+)))))))))).)))))))) | 56.9 °C |
| CGACGTGCGCAATGTGCTG+CAGCACATTGTGCACGTCG ((((((((.((((((((((+)))))))))).)))))))) | 59.9 °C |
| CGACGTGCCCCATGTGCTG+CAGCACATTTCGCACGTCG ((((((((...((((((((+))))))))...)))))))) | 46 °C |
| CGACGTGCTCGATGTGCTG+CAGCACATCAGGCACGTCG ((((((((..(((((((((+)))))))))..)))))))) | 55.4 °C |

###

# TEST METHOD NOTES: melting temperature; melt of duplexes
# CONDITION PARAMETERS: sodium 0.0675 M; strand 1 µM

| SUBSTANCE | UNIT OF MEASURE | Tm |
| --- | --- | --- |
| CGACGTGCCGGATGTGCTG+CAGCACATCAAGCACGTCG ((((((((..(((((((((+)))))))))..)))))))) | °C | 54.8 |
| CGACGTGCACGATGTGCTG+CAGCACATCTTGCACGTCG (((((((((.(((((((((+))))))))).))))))))) | °C | 55.7 |
| CGACGTGCGGCATGTGCTG+CAGCACATCGGGCACGTCG ((((((((...((((((((+))))))))...)))))))) | °C | 49.6 |
| CGACGTGCAAAATGTGCTG+CAGCACATGAAGCACGTCG ((((((((...((((((((+))))))))...)))))))) | °C | 53.7 |
| CGACGTGCACCATGTGCTG+CAGCACATTGGGCACGTCG ((((((((.(.((((((((+)))))))).).)))))))) | °C | 52.5 |
| CGACGTGCAGGATGTGCTG+CAGCACATGGGGCACGTCG ((((((((...((((((((+))))))))...)))))))) | °C | 50.4 |
